These data points were gathered from paper PMC10567728.

biological target: uPAR (Homo sapiens); construct: Recombinant human uPAR^1–283 was expressed; made in house; host or cells: Drosophila melanogaster S2 cells; assay: SPR real-time binding kinetics, peptides in solution and immobilised uPAR; settings: single cycle SPR, immobilised uPAR, 20 °C
Sequence (Q03405 23-305): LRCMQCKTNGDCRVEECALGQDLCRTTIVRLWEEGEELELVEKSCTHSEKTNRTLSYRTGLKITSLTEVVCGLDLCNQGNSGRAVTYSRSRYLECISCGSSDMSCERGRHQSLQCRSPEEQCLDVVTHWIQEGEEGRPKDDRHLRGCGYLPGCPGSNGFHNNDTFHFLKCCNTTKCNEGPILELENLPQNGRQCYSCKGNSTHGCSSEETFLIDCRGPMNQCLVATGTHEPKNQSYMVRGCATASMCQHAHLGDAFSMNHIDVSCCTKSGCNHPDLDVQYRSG
Positions of bridges follow the written chain, without caps; N, C: chain ends. Non-standard residues stand in square brackets, D forms with d. Residues, ends and D or L forms follow the SMILES beside them. *: point of attachment. DOTA = O=C(O)CN1CCN(CC(=O)O)CCN(CC(=O)*)CCN(CC(=O)O)CC1; Cha = N[C@@H](CC1CCCCC1)C(=O)O
Item-by-item account of koff

Compound	Unit annotation	koff
CC(C)C[C@H](NC(=O)[C@H](Cc1ccc(O)cc1)NC(=O)[C@@H](CCCNC(=N)N)NC(=O)[C@@H](CO)NC(=O)[C@H](Cc1ccccc1)NC(=O)[C@H](CC1CCCCC1)NC(=O)[C@H](CC(=O)O)NC(=O)CNC(=O)CNC(=O)[C@@H](CO)NC(=O)CNC(=O)[C@H](CCC(=O)O)NC(=O)[C@H](CCC(=O)O)NC(=O)CN1CCN(CC(=O)O)CCN(CC(=O)O)CCN(CC(=O)O)CC1)C(=O)N[C@@H](Cc1c[nH]c2ccccc12)C(=O)N[C@@H](CO)C(=O)O [4b] ({DOTA}-EEG[dS]GGD[Cha]F[dS][dR]YLWS-OH)	s⁻¹	0.00717
CC(C)C[C@H](NC(=O)[C@H](Cc1ccc(O)cc1)NC(=O)[C@@H](CCCNC(=N)N)NC(=O)[C@@H](CO)NC(=O)[C@H](Cc1ccccc1)NC(=O)[C@H](CC1CCCCC1)NC(=O)[C@@H](N)CC(=O)O)C(=O)N[C@@H](Cc1c[nH]c2ccccc12)C(=O)N[C@@H](CO)C(N)=O	s⁻¹	0.000998
CC(C)C[C@@H]1NC(=O)[C@H](Cc2ccc(O)cc2)NC(=O)[C@H](NC(=O)[C@@H](CO)NC(=O)[C@H](Cc2ccccc2)NC(=O)[C@H](CC2CCCCC2)NC(=O)[C@@H](N)CC(=O)O)CSSC[C@@H](C(=O)O)NC(=O)[C@H](Cc2c[nH]c3ccccc23)NC1=O [compound 3] (H-D[Cha]F[dS][dC]YLWC-OH; disulfide 5-9; N-terminus assumed)	s⁻¹	0.00365

====

target: uPAR (Homo sapiens); construct: Recombinant human uPAR^1–283 was expressed; made in house; host or cells: Drosophila melanogaster S2 cells; assay: Nano-DSF thermal stability of uPAR•peptide complexes; conditions: 15 µM uPAR, 30 µM peptide, PBS pH 7.4, n = 3
Positions of bridges follow the written chain, without caps; N, C: chain ends. Non-standard residues stand in square brackets, D forms with d. Residues, ends and D or L forms follow the SMILES beside them. *: point of attachment. DOTA = O=C(O)CN1CCN(CC(=O)O)CCN(CC(=O)*)CCN(CC(=O)O)CC1; Cha = N[C@@H](CC1CCCCC1)C(=O)O
Item-by-item account of Tm (apparent melting temperature of uPAR•peptide complex)
Endpoint: Tm (apparent melting temperature of uPAR•peptide complex) (°C)

Molecule	Target or test system	Relation symbol	Experimental result
CC(C)C[C@@H]1NC(=O)[C@H](Cc2ccc(O)cc2)NC(=O)[C@H](NC(=O)[C@@H](CO)NC(=O)[C@H](Cc2ccccc2)NC(=O)[C@H](CC2CCCCC2)NC(=O)[C@H](CC(=O)O)NC(=O)CNC(=O)CNC(=O)[C@@H](CO)NC(=O)CNC(=O)[C@H](CCC(=O)O)NC(=O)[C@H](CCC(=O)O)NC(=O)CN2CCN(CC(=O)O)CCN(CC(=O)O)CCN(CC(=O)O)CC2)CSSC[C@@H](C(=O)O)NC(=O)[C@H](Cc2c[nH]c3ccccc23)NC1=O [6b] ({DOTA}-EEG[dS]GGD[Cha]F[dS][dC]YLWC-OH; disulfide 11-15)	uPAR (Homo sapiens)	=	61.3
CC(C)C[C@@H]1NC(=O)[C@H](Cc2ccc(O)cc2)NC(=O)[C@H](NC(=O)[C@@H](CO)NC(=O)[C@H](Cc2ccccc2)NC(=O)[C@H](CC2CCCCC2)NC(=O)[C@H](CC(=O)O)NC(=O)CN2CCN(CC(=O)O)CCN(CC(=O)O)CCN(CC(=O)O)CC2)CSSC[C@@H](C(N)=O)NC(=O)[C@H](Cc2c[nH]c3ccccc23)NC1=O [9b] ({DOTA}-D[Cha]F[dS][dC]YLWC-NH2; disulfide 5-9)	uPAR (Homo sapiens)	≥	70

====

molecular target: uPAR (Homo sapiens); construct: Recombinant human uPAR^1–283 was expressed; made in house; host or cells: Drosophila melanogaster S2 cells; test: Nano-DSF thermal stability of uPAR•peptide complexes; settings: 15 µM uPAR, 30 µM peptide, PBS pH 7.4, n = 3
Positions of bridges follow the written chain, without caps; N, C: chain ends. Non-standard residues stand in square brackets, D forms with d. Residues, ends and D or L forms follow the SMILES beside them. Cha = N[C@@H](CC1CCCCC1)C(=O)O
Endpoint: Tm (apparent melting temperature of uPAR•peptide complex)

Compound	Target or test system	Experimental result
CC(C)C[C@@H]1NC(=O)[C@H](Cc2ccc(O)cc2)NC(=O)[C@H](NC(=O)[C@@H](CO)NC(=O)[C@H](Cc2ccccc2)NC(=O)[C@H](CC2CCCCC2)NC(=O)[C@H](CC(=O)O)NC(=O)CNC(=O)CNC(=O)[C@@H](CO)NC(=O)CNC(=O)[C@H](CCC(=O)O)NC(=O)[C@@H](N)CCC(=O)O)CSSC[C@@H](C(N)=O)NC(=O)[C@H](Cc2c[nH]c3ccccc23)NC1=O [compound 11] (H-EEG[dS]GGD[Cha]F[dS][dC]YLWC-NH2; disulfide 11-15; N-terminus assumed)	uPAR (Homo sapiens)	~ 65 °C

====

biological target: uPAR (Homo sapiens); construct: Recombinant human uPAR^1–283 was expressed; made in house; host or cells: Drosophila melanogaster S2 cells; assay: Nano-DSF thermal stability of uPAR•peptide complexes; conditions: 15 µM uPAR, 30 µM peptide, PBS pH 7.4, n = 3
Non-standard residues stand in square brackets, D forms with d. Residues, ends and D or L forms follow the SMILES beside them. *: point of attachment. DOTA = O=C(O)CN1CCN(CC(=O)O)CCN(CC(=O)*)CCN(CC(=O)O)CC1; Cha = N[C@@H](CC1CCCCC1)C(=O)O
Endpoint: Tm (apparent melting temperature of uPAR•peptide complex)

Compound	Experimental result
CC(C)C[C@H](NC(=O)[C@H](Cc1ccc(O)cc1)NC(=O)[C@@H](CCCNC(=N)N)NC(=O)[C@@H](CO)NC(=O)[C@H](Cc1ccccc1)NC(=O)[C@H](CC1CCCCC1)NC(=O)[C@H](CC(=O)O)NC(=O)CN1CCN(CC(=O)O)CCN(CC(=O)O)CCN(CC(=O)O)CC1)C(=O)N[C@@H](Cc1c[nH]c2ccccc12)C(=O)N[C@@H](CO)C(=O)O	58.8 °C
CC(C)C[C@H](NC(=O)[C@H](Cc1ccc(O)cc1)NC(=O)[C@@H](CCCNC(=N)N)NC(=O)[C@@H](CO)NC(=O)[C@H](Cc1ccccc1)NC(=O)[C@H](CC1CCCCC1)NC(=O)[C@H](CC(=O)O)NC(=O)CNC(=O)CNC(=O)[C@@H](CO)NC(=O)CNC(=O)[C@H](CCC(=O)O)NC(=O)[C@H](CCC(=O)O)NC(=O)CN1CCN(CC(=O)O)CCN(CC(=O)O)CCN(CC(=O)O)CC1)C(=O)N[C@@H](Cc1c[nH]c2ccccc12)C(=O)N[C@@H](CO)C(N)=O [10b] ({DOTA}-EEG[dS]GGD[Cha]F[dS][dR]YLWS-NH2)	66.2 ± 0.3 °C
CC(C)C[C@H](NC(=O)[C@H](Cc1ccc(O)cc1)NC(=O)[C@@H](CCCNC(=N)N)NC(=O)[C@@H](CO)NC(=O)[C@H](Cc1ccccc1)NC(=O)[C@H](CC1CCCCC1)NC(=O)[C@H](CC(=O)O)NC(=O)CN1CCN(CC(=O)O)CCN(CC(=O)O)CCN(CC(=O)O)CC1)C(=O)N[C@@H](Cc1c[nH]c2ccccc12)C(=O)N[C@@H](CO)C(N)=O	~ 70 °C

====

Item-by-item account of IC50
Biological target: uPAR•uPA interaction (Homo sapiens)
Construct: Recombinant human uPAR^1–283 was expressed
Sequence (Q03405 23-305): as above
Test: SPR competition assay of the uPAR•uPA interaction
Conditions: competition of uPAR•uPA interaction, 2 nM uPAR, 20 °C, n = 3
Procedure: The IC50-values of antagonistic peptides on the uPAR•uPA interaction were determined with SPR using a Biacore T200™ or Biacore 3000™ instruments (Cytiva) essentially as described[4],[56],[77]. In brief, we immobilized high levels of pro-uPA^S356A (0.1 pmol pro-uPA/mm^2) on a CM5 sensor chip via amine coupling. The experiments were conducted by injecting 2 nM uPAR in presence of a threefold dilution series of a given antagonistic peptide for 300 s with a flow rate of 50 µL/min at 20 °C. […]
Positions of bridges follow the written chain, without caps; N, C: chain ends. Non-standard residues stand in square brackets, D forms with d. Residues, ends and D or L forms follow the SMILES beside them. *: point of attachment. DOTA = O=C(O)CN1CCN(CC(=O)O)CCN(CC(=O)*)CCN(CC(=O)O)CC1; Cha = N[C@@H](CC1CCCCC1)C(=O)O
Endpoint: IC50 (nM)

Compound	Experimental result
CC(C)C[C@@H]1NC(=O)[C@H](Cc2ccc(O)cc2)NC(=O)[C@H](NC(=O)[C@@H](CO)NC(=O)[C@H](Cc2ccccc2)NC(=O)[C@H](CC2CCCCC2)NC(=O)[C@@H](N)CC(=O)O)CSSC[C@@H](C(=O)O)NC(=O)[C@H](Cc2c[nH]c3ccccc23)NC1=O [compound 3] (H-D[Cha]F[dS][dC]YLWC-OH; disulfide 5-9; N-terminus assumed)	6.5
CC(C)C[C@H](NC(=O)[C@H](Cc1ccc(O)cc1)NC(=O)[C@@H](CCCNC(=N)N)NC(=O)[C@@H](CO)NC(=O)[C@H](Cc1ccccc1)NC(=O)[C@H](CC1CCCCC1)NC(=O)[C@@H](N)CC(=O)O)C(=O)N[C@@H](Cc1c[nH]c2ccccc12)C(=O)N[C@@H](CO)C(=O)O [compound 1, AE105]	8.8
CC(C)C[C@@H]1NC(=O)[C@H](Cc2ccc(O)cc2)NC(=O)[C@H](NC(=O)[C@@H](CO)NC(=O)[C@H](Cc2ccccc2)NC(=O)[C@H](CC2CCCCC2)NC(=O)[C@H](CC(=O)O)NC(=O)CN2CCN(CC(=O)O)CCN(CC(=O)O)CCN(CC(=O)O)CC2)CSSC[C@@H](C(N)=O)NC(=O)[C@H](Cc2c[nH]c3ccccc23)NC1=O [9b] ({DOTA}-D[Cha]F[dS][dC]YLWC-NH2; disulfide 5-9)	7.3
